Tested on: MDA-MB-231 breast
Assay: NCI tumour cell line growth inhibition, 48 h
recordedMetric: GI50

Worked cases, answers included:
INSERT INTO results (compound, recordedmetric, result) VALUES
  ('O=c1cc(NCC(O)CN2CCOCC2)n(Cc2ccccc2)c(=O)n1Cc1ccccc1 (centres undefined)', 'GI50', '19.2 µM'),
  ('CCOC(=O)/C=C1/SC(N2CCCCC2)C(=O)N1CC (centres undefined)', 'GI50', '> 100 µM'),
  ('CCCCCCCC(=O)SCC/C=C/[C@@H]1CC(=O)NCc2cccc(n2)CN(Cc2ccc3ccccc3c2)CC(=O)N[C@@H](C(C)C)C(=O)O1', 'GI50', '41.4 µM'),
  ('COc1ccc(N2CCN(C(=O)c3ccc(C(F)(F)F)nc3Nc3cc(Cl)ccc3C)CC2)cc1', 'GI50', '4.09 µM'),
  ('CC1(C)CC[C@]2(C(N)=O)CC[C@]3(C)C(=CC[C@@H]4[C@@]5(C)C/C(=C/c6cccnc6)C(=O)C(C)(C)[C@@H]5CC[C@]43C)[C@@H]2C1', 'GI50', '3.8 µM'),
  ('COc1cc2c(cc1OCc1ccccc1)N=CC1C[C@@H](O)CN1C2=O (some centres undefined)', 'GI50', '3.01 µM'),
  ('O=CN/N=C/c1ccc(Cl)c([N+](=O)[O-])c1', 'GI50', '1.54 µM'),
  ('Cn1cc(-c2ccc(-c3cn(C)c4ccc(Cl)cc34)[nH]2)c2cc(Cl)ccc21', 'GI50', '0.442 µM');

[in] Query (compound): Oc1cccc(-c2nc(-c3n[nH]c(=S)n3-c3ccccc3)cc3c2[nH]c2ccccc23)c1 ; field requested: GI50
[out] 3.19 µM

Origin of measurements: PubChem BioAssay (NCI)
